The reported measurements were obtained from ChEMBL document CHEMBL4421722.

- Organism: Rattus norvegicus
- method: Inhibition of rat recombinant geranylgeranyltransferase type I expressed in Escherichia coli assessed as residual enzyme activity for geranylgeranylation of K-Ras4B at 50 uM incubated for 30 mins in presence of [3H]GGPP by scintillation counting assay relative to control
Where Activity equals or exceeds 70%, the correct label is YES; where it does not, the label is NO.

Incoming: Does the compound "COc1ccc([C@@H]2C[C@@H](SC3CCCC3)[C@H](C(=O)O)CN2S(=O)(=O)c2ccccc2)cc1" have recorded Activity that is 70% or more?
Outgoing: YES

Incoming: Does the compound "O=C(O)C1=CC[C@@H](c2ccc(Cl)cc2)N(S(=O)(=O)c2ccc(Cl)cc2)[C@H]1c1cccc(Cl)c1" have recorded Activity that is 70% or more?
Outgoing: NO

Incoming: Does the compound "Cc1ccc(S(=O)(=O)N2[C@@H](c3cccc(Br)c3)C(C(=O)O)=CC[C@H]2c2ccccc2)cc1" have recorded Activity that is 70% or more?
Outgoing: NO

Incoming: Does the compound "COc1ccc(S[C@@H]2C[C@@H](c3cc(OC)c(OC)c(OC)c3)N(S(=O)(=O)c3ccc(C)cc3)C[C@H]2C(=O)O)cc1" have recorded Activity that is 70% or more?
Outgoing: YES

Incoming: Does the compound "COc1ccc([C@@H]2C=CCCN2S(=O)(=O)c2ccc(C)cc2)cc1" have recorded Activity that is 70% or more?
Outgoing: YES

Incoming: Does the compound "COc1ccc([C@@H]2C[C@@H](SCCC(C)C)[C@H](C(=O)O)CN2S(=O)(=O)c2ccc(C)cc2)cc1" have recorded Activity that is 70% or more?
Outgoing: YES

Incoming: Does the compound "COC(=O)c1ccccc1S(=O)(=O)N1[C@@H](c2ccc(F)cc2)C(C(=O)O)=CC[C@H]1c1ccc(C)cc1" have recorded Activity that is 70% or more?
Outgoing: YES

Incoming: Does the compound "Cc1ccc(S(=O)(=O)N2[C@@H](c3ccc(Cl)cc3)C(C(=O)O)=CC[C@H]2c2ccc(C(C)C)cc2)cc1" have recorded Activity that is 70% or more?
Outgoing: NO

Incoming: Does the compound "Cc1ccc(S(=O)(=O)N2C[C@@H](C(=O)O)[C@H](SCc3ccccc3)C[C@H]2c2ccc3c(c2)OCO3)cc1" have recorded Activity that is 70% or more?
Outgoing: NO

Incoming: Does the compound "CCCS[C@@H]1C[C@@H](c2cccc(Br)c2)N(S(=O)(=O)c2ccc(C)cc2)C[C@H]1C(=O)O" have recorded Activity that is 70% or more?
Outgoing: YES

Incoming: Does the compound "Cc1ccc(S[C@@H]2C[C@@H](c3ccc(C)cc3)N(S(=O)(=O)c3ccccc3C)C[C@H]2C(=O)O)cc1" have recorded Activity that is 70% or more?
Outgoing: YES

Incoming: Does the compound "Cc1ccccc1S(=O)(=O)N1[C@@H](c2ccccc2F)C(C(=O)O)=CC[C@H]1c1ccc(Cl)cc1" have recorded Activity that is 70% or more?
Outgoing: NO

Incoming: Does the compound "Cc1ccc([C@@H]2CC=C(C(=O)O)[C@H](c3cccc(C)c3)N2S(=O)(=O)c2ccc(C)cc2)cc1" have recorded Activity that is 70% or more?
Outgoing: NO

* * *

So I've got a bunch of compounds here, and I need their Activity values.
- Species: Rattus norvegicus
- method: Inhibition of rat recombinant geranylgeranyltransferase type I expressed in Escherichia coli assessed as residual enzyme activity for geranylgeranylation of K-Ras4B at 50 uM incubated for 30 mins in presence of [3H]GGPP by scintillation counting assay relative to control
The response must be a number in % with no trailing unit.

Incoming: Endpoint output: Activity of "Cc1ccc(S(=O)(=O)N2[C@@H](c3cccc(Br)c3)C(C(=O)O)=CC[C@H]2c2cccc(F)c2)cc1" . Value?
Outgoing: 67.1

Incoming: Endpoint output: Activity of "Cc1ccc(S(=O)(=O)N2[C@@H](c3ccc(F)cc3)C(C(=O)O)=CC[C@H]2c2cccc(F)c2)cc1" . Value?
Outgoing: 63.4

Incoming: Endpoint output: Activity of "Cc1ccc([C@@H]2CC=C(C(=O)O)[C@H](c3cccc(Br)c3)N2S(=O)(=O)c2ccc(C)cc2)cc1" . Value?
Outgoing: 75.6

Incoming: Endpoint output: Activity of "COc1ccc([C@@H]2CC=C(C(=O)O)[C@H](c3cccc(F)c3)N2S(=O)(=O)c2ccc(Cl)cc2)cc1" . Value?
Outgoing: 69.3

Incoming: Endpoint output: Activity of "Cc1ccc(S(=O)(=O)N2C[C@@H](C(=O)O)[C@H](SC3CCCC3)C[C@H]2c2ccccc2F)cc1" . Value?
Outgoing: 93.4

Incoming: Endpoint output: Activity of "Cc1ccc([C@@H]2CC=C(C(=O)O)[C@H](c3ccc(C(C)(C)C)cc3)N2S(=O)(=O)c2ccccc2C)cc1" . Value?
Outgoing: 80.9

Incoming: Endpoint output: Activity of "C=CCS[C@@H]1C[C@@H](c2ccc(C)cc2)N(S(=O)(=O)c2ccc(C)cc2)C[C@H]1C(=O)O" . Value?
Outgoing: 94.1

Incoming: Endpoint output: Activity of "Cc1ccc(S(=O)(=O)N2C[C@@H](C(=O)O)[C@H](SCc3ccc(Cl)cc3)C[C@H]2c2ccc3c(c2)OCO3)cc1" . Value?
Outgoing: 37.4

Incoming: Endpoint output: Activity of "Cc1ccc(S(=O)(=O)N2[C@@H](c3ccc(C(C)(C)C)cc3)C(C(=O)O)=CC[C@H]2c2ccccc2F)cc1" . Value?
Outgoing: 84.2

Incoming: Endpoint output: Activity of "CCC[C@@H]1[C@@H](Sc2ccc(OC)cc2)[C@@H](C(=O)O)[C@H](c2cccc(F)c2)N1S(=O)(=O)c1ccc(C)cc1" . Value?
Outgoing: 27.4

Incoming: Endpoint output: Activity of "CC(=O)C1=CC[C@@H](c2ccccc2)N(S(=O)(=O)c2ccc(C)cc2)C1" . Value?
Outgoing: 98.8

Incoming: Endpoint output: Activity of "Cc1ccc([C@@H]2C[C@@H](SC3CCCC3)[C@H](C(=O)O)CN2S(=O)(=O)c2ccc(C)cc2)cc1" . Value?
Outgoing: 87.8

Incoming: Endpoint output: Activity of "Cc1ccc(S(=O)(=O)N2[C@@H](c3ccc(F)cc3)C(C(=O)O)=CC[C@H]2c2ccc(Cl)cc2)cc1" . Value?
Outgoing: 62

Incoming: Endpoint output: Activity of "C=CCS[C@H]1[C@@H](C(=O)O)[C@H](c2ccc(Br)cc2)N(S(=O)(=O)c2ccc(C)cc2)[C@@H]1CCCCCC" . Value?
Outgoing: 15.5

Incoming: Endpoint output: Activity of "Cc1cccc([C@H]2C(C(=O)O)=CC[C@@H](c3ccc(Cl)cc3)N2S(=O)(=O)c2ccc(Cl)cc2)c1" . Value?
Outgoing: 89.5

Incoming: Endpoint output: Activity of "CCS[C@@H]1C[C@@H](c2ccc(OC)cc2)N(S(=O)(=O)c2ccccc2)C[C@H]1C(=O)O" . Value?
Outgoing: 89.9
